Reference for the values: paper PMC5413942

- system: T1, TonB_(ΔTMD) (soluble TonB, residues 33–239, deletion of the N-terminal transmembrane helix) (E. coli, UniProt P02929 33-239)
- T1 construct: Gly-Cys between the (His)6 tag and TonB, translated from the printed forward primer (GGCTGT); the cysteine is for AFM surface attachment; TonB of E. coli, cloned from the genome of E. coli BL21 (DE3), residues 33-239 (without the transmembrane domain, residues 1-32); the forward primer begins at HQVIELP; In the AFM experiments the engineered cysteine was coupled to NHS-PEG24-maleimide on the …
- T1 sequence (P02929 33-239, tags or fused parts left off): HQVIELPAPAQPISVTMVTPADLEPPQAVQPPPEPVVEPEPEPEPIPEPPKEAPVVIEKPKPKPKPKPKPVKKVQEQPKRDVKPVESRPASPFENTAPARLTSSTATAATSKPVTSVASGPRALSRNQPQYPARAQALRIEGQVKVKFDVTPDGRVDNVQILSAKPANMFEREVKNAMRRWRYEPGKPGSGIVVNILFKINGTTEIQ
- experiment: MST; Alexa Fluor 488-labelled TB_(BtuB) peptide at constant concentration (500 nM mixed 1:1), TonB_(ΔTMD) titrated 7 nM-244 μM in 16 dilutions; 25 mM Tris-HCl pH 7.5, 128 mM NaCl, 5 min at room temperature; fit by the law of mass action
- experimental-conditions: both partners purified
pKd: −log10 of the molar value. Where no end group is shown, it is not given here.
readout-name: pKd

• PDTLVVTANRGSWSC(Alexa Fluor 488 C5 maleimide) (also called TB_(BtuB)-Alexa fluor 488; Ton box_(BtuB) peptide; source: synthetic peptide) [Ton box peptide from BtuB (TB_(BtuB)) labelled with Alexa Fluor 488 C5 maleimide] = 5.03
